The reported measurements were obtained from patent EP4772535A1.

Molecular target: T1, ROR1 naturally expressed on human tumor cell lines (A549, Jeko-1, SW620, PA-1) (human, UniProt Q01973 30-937)
T1 construct: whole, on cells; also called cells expressing ROR1
T1 sequence (Q01973 30-937): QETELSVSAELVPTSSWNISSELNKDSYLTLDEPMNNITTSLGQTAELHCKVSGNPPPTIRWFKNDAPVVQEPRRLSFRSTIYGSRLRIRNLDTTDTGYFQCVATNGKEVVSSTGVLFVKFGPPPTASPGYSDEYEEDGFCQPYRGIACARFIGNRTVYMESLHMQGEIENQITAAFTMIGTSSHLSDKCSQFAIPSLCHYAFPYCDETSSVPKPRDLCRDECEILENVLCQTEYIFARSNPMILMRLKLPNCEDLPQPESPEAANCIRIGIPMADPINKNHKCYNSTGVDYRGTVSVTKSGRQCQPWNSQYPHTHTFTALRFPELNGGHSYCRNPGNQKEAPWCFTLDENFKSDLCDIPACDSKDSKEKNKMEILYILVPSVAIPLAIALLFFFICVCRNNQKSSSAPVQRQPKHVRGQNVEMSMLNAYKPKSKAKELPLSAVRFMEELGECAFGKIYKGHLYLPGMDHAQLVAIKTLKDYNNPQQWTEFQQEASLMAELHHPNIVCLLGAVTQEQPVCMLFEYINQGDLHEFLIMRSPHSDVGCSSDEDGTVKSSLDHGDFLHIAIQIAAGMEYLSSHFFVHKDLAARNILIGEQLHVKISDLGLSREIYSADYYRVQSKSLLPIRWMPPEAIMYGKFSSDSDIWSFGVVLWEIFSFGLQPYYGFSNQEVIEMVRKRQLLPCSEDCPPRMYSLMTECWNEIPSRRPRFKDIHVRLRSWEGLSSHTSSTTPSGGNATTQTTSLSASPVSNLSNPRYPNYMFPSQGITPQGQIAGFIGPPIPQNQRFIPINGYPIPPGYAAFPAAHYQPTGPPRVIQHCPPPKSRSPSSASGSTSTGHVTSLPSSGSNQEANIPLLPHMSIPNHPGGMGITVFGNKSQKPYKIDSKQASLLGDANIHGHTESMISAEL
Assay: FACS on Jeko-1 cells naturally expressing ROR1
experimental_readout: Top (MFI)
Field format: number, assumed MFI, no unit text.

binder	number
hz137G11D10-1.2 (antibody, human IgG1, kappa, V domains shown, Humanized, human IgG1/kappa) VH: QVQLQESGPGLVKPSQTLSLTCTVSGYSITSDYAWNWIRQHPGKGLEWIGYITYSASTSYNPSLKSRVTISRDTSKNQFFLKLSSVTAADTAVYYCARGAGTYYFDYWGQGTLVTVSS VL: ETTLTQSPAFMSATPGDKVNISCITSTDIDEDMNWYQQKPGEAAKLIISEDNSLRPGIPPRFSSSGYGTDFTLTINNIESEDAAYYFCLQTNNLPLTFGQGTKVEIKR	92500

Would you mind telling me what Top (MFI) value was observed for hz137G11D10-3.2 (antibody, human IgG1, kappa, V domains shown, Humanized, human IgG1/kappa) VH: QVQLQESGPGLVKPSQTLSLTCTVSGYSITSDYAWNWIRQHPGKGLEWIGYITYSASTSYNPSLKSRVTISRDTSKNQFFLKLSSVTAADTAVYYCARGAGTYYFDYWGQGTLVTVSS VL: DIQMTQSPSSLSASVGDRVTITCITSTDIDEDMNWYQQKPGKAPKLLISEDNSLRPGVPSRFSSSGYGTDFTLTISSLQPEDFATYYCLQTNNLPLTFGQGTKVEIKR ?
86800

Would you mind telling me what Top (MFI) value was observed for hz137G11D10-1.1 (antibody, human IgG1, kappa, V domains shown, Humanized, human IgG1/kappa) VH: QVQLQESGPGLVKPSQTLSLTCTVSGYSITSDYAWNWIRQHPGKGLEWIGYITYSASTSYNPSLKSRVTISRDTSKNQFSLKLSSVTAADTAVYYCARGAGTYYFDYWGQGTLVTVSS VL: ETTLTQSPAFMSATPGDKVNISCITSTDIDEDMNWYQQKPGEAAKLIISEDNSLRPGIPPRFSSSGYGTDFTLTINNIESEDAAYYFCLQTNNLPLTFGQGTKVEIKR ?
93200
